Data credit: ChEMBL document CHEMBL3885861

Examples of compounds with documented ALP follow.
Species: Rattus norvegicus
experimentNotes: Open TG-GATES - Regimen: Single
Format: toxicity, organism-based, Sprague-Dawley
Design: regimen Single, gender Male, age 6 weeks
runConditions: in vivo, po, 0 mg/kg, 9 h, tissue Plasma, route gavage, dose level Control
A number alone suffices; assume IU/L.

In the examples that follow, each entry is paired with its recorded ALP.
[[record]]
compound = "CCOc1ccc(NC(=O)CC(C)O)cc1 (stereo unspecified)"
measure = "ALP"
assayresult = 1557.4

[[record]]
compound = "CC1=C(/C=C/C(C)=C/C=C/C(C)=C/CO)C(C)(C)CCC1"
measure = "ALP"
assayresult = 1691.8

[[record]]
compound = "CN(C)CCCN1c2ccccc2CCc2ccccc21"
measure = "ALP"
assayresult = 1396.6

[[record]]
compound = "COc1ccc2[nH]c([S+]([O-])Cc3ncc(C)c(OC)c3C)nc2c1 (stereo unspecified)"
measure = "ALP"
assayresult = 764.2

[[record]]
compound = "CCCNC(=O)NS(=O)(=O)c1ccc(Cl)cc1 [CHLORPROPAMIDE]"
measure = "ALP"
assayresult = 1410


Sure, the documented ALP for O=C(CCCN1CCC(O)(c2ccc(Cl)cc2)CC1)c1ccc(F)cc1 is 860.2

Sure, the documented ALP for NC(N)=Nc1nc(CSCCC(N)=NS(N)(=O)=O)cs1 is 883.2

Sure, the documented ALP for COC1=CC(=O)C[C@@H](C)[C@]12Oc1c(Cl)c(OC)cc(OC)c1C2=O is 1130.6

Sure, the documented ALP for COc1cc2c(c(OC)c1OC)-c1ccc(OC)c(=O)cc1[C@@H](NC(C)=O)CC2 is 948.4

Sure, the documented ALP for CN(C)CCN(Cc1cccs1)c1ccccn1 is 1371.8

Sure, the documented ALP for CCOC(=O)CCC(=O)O[C@H]1[C@H](O[C@@H]2[C@@H](C)[C@H](O[C@H]3C[C@@](C)(OC)[C@@H](O)[C@H](C)O3)[C@@H](C)C(=O)O[C@H](CC)[C@@](C)(O)[C@H](O)[C@@H](C)C(=O)[C@H](C)C[C@@]2(C)O)O[C@H](C)C[C@@H]1N(C)C [ERYTHROMYCIN ETHYLSUCCINATE] is 1414

Sure, the documented ALP for CN1C(=O)CN=C(c2ccccc2)c2cc(Cl)ccc21 is 712.4

Sure, the documented ALP for CC(C)OC(=O)C(C)(C)Oc1ccc(C(=O)c2ccc(Cl)cc2)cc1 [FENOFIBRATE] is 1454.2

----------
Examples of molecules with documented RALB follow.
Organism: Rattus norvegicus
experimentNotes: Open TG-GATES - Regimen: Daily Repeat
Assay type: toxicity, organism-based, Sprague-Dawley
Set-up: regimen Daily Repeat, gender Male, age 6 weeks
runConditions: in vivo, po, 100 mg/kg, […], tissue Plasma, route gavage, dose level Low, time 14 day
A number alone suffices; assume g/dL.

In the examples that follow, each entry is paired with its recorded RALB.
[[record]]
molecule = "CCOc1ccc(NC(=O)CC(C)O)cc1 (stereo not given)"
measure = "RALB"
assayresult = 2.8

[[record]]
molecule = "COC1=CC(=O)C[C@@H](C)[C@]12Oc1c(Cl)c(OC)cc(OC)c1C2=O"
measure = "RALB"
assayresult = 3.5

[[record]]
molecule = "NC(N)=Nc1nc(CSCCC(N)=NS(N)(=O)=O)cs1"
measure = "RALB"
assayresult = 3.3

[[record]]
molecule = "COc1ccc2[nH]c([S+]([O-])Cc3ncc(C)c(OC)c3C)nc2c1 (stereo not given)"
measure = "RALB"
assayresult = 3.4


Pending molecule:
Sure, the documented RALB for CCOC(=O)CCC(=O)O[C@H]1[C@H](O[C@@H]2[C@@H](C)[C@H](O[C@H]3C[C@@](C)(OC)[C@@H](O)[C@H](C)O3)[C@@H](C)C(=O)O[C@H](CC)[C@@](C)(O)[C@H](O)[C@@H](C)C(=O)[C@H](C)C[C@@]2(C)O)O[C@H](C)C[C@@H]1N(C)C [ERYTHROMYCIN ETHYLSUCCINATE] is 3.1

----------
Organism: Rattus norvegicus
experimentNotes: Open TG-GATES - Regimen: Single
Type: toxicity, organism-based, Sprague-Dawley
Parameters: regimen Single, gender Male, age 6 weeks
runConditions: in vivo, po, 100 mg/kg, 24 h, tissue Plasma, route gavage, dose level High
Examples of molecules with documented gamma-GTP follow.
A number alone suffices; assume IU/L.

In the examples that follow, each entry is paired with its recorded gamma-GTP.
[[record]]
molecule = "CN(C)CCCN1c2ccccc2CCc2ccccc21 [IMIPRAMINE]"
readoutunits = "IU/L"
assayresult = 1.2

[[record]]
molecule = "CN(C)CCCN1c2ccccc2CCc2ccc(Cl)cc21 [CLOMIPRAMINE]"
readoutunits = "IU/L"
assayresult = 1


Sure, the documented gamma-GTP for CN(C)CCN(Cc1cccs1)c1ccccn1 is 1

Sure, the documented gamma-GTP for CC1=C(/C=C/C(C)=C/C=C/C(C)=C/CO)C(C)(C)CCC1 [RETINOL] is 1.8

----------
Species on record: Rattus norvegicus
experimentNotes: Open TG-GATES - Regimen: Single
Assay type: toxicity, organism-based, Sprague-Dawley
Set-up: regimen Single, gender Male, age 6 weeks
runConditions: in vivo, po, 100 mg/kg, 3 h, tissue Blood, route gavage, dose level High
Examples of compounds with documented WBC follow.
A number alone suffices; assume x10_2/uL.

[[record]]
structuresmilesstring = "CN(C)CCN(Cc1cccs1)c1ccccn1"
measure = "WBC"
readoutunits = "x10_2/uL"
assayresult = 60.8

[[record]]
structuresmilesstring = "CN(C)CCCN1c2ccccc2CCc2ccccc21"
measure = "WBC"
readoutunits = "x10_2/uL"
assayresult = 79.2

[[record]]
structuresmilesstring = "CC1=C(/C=C/C(C)=C/C=C/C(C)=C/CO)C(C)(C)CCC1"
measure = "WBC"
readoutunits = "x10_2/uL"
assayresult = 79.7


Sure, the documented WBC for CN(C)CCCN1c2ccccc2CCc2ccc(Cl)cc21 is 69.8

----------
Examples of molecules with documented Lym follow.
Species on record: Rattus norvegicus
experimentNotes: Open TG-GATES - Regimen: Single
Assay type: toxicity, organism-based, Sprague-Dawley
Parameters: regimen Single, gender Male, age 6 weeks
runConditions: in vivo, po, 1000 mg/kg, 6 h, tissue Blood, route gavage, dose level High
A number alone suffices; assume %.

[[record]]
molecule = "CCOC(=O)CCC(=O)O[C@H]1[C@H](O[C@@H]2[C@@H](C)[C@H](O[C@H]3C[C@@](C)(OC)[C@@H](O)[C@H](C)O3)[C@@H](C)C(=O)O[C@H](CC)[C@@](C)(O)[C@H](O)[C@@H](C)C(=O)[C@H](C)C[C@@]2(C)O)O[C@H](C)C[C@@H]1N(C)C [ERYTHROMYCIN ETHYLSUCCINATE]"
measure = "Lym"
assayresult = 73.2


Sure, the documented Lym for NC(N)=Nc1nc(CSCCC(N)=NS(N)(=O)=O)cs1 is 74

Sure, the documented Lym for COc1ccc2[nH]c([S+]([O-])Cc3ncc(C)c(OC)c3C)nc2c1 (centres undefined) is 70.6

Sure, the documented Lym for COC1=CC(=O)C[C@@H](C)[C@]12Oc1c(Cl)c(OC)cc(OC)c1C2=O is 75.6

----------
Species: Rattus norvegicus
experimentNotes: Open TG-GATES - Regimen: Single
Assay type: toxicity, organism-based, Sprague-Dawley
Design: regimen Single, gender Male, age 6 weeks
runConditions: in vivo, po, 300 mg/kg, 6 h, tissue Plasma, route gavage, dose level Middle
measure: BUN (mg/dL)
A number alone suffices; assume mg/dL.

In the examples that follow, each entry is paired with its recorded BUN.
[[record]]
compound = "NC(N)=Nc1nc(CSCCC(N)=NS(N)(=O)=O)cs1 [FAMOTIDINE]"
assayresult = 8.4

[[record]]
compound = "CCOC(=O)CCC(=O)O[C@H]1[C@H](O[C@@H]2[C@@H](C)[C@H](O[C@H]3C[C@@](C)(OC)[C@@H](O)[C@H](C)O3)[C@@H](C)C(=O)O[C@H](CC)[C@@](C)(O)[C@H](O)[C@@H](C)C(=O)[C@H](C)C[C@@]2(C)O)O[C@H](C)C[C@@H]1N(C)C [ERYTHROMYCIN ETHYLSUCCINATE]"
assayresult = 10.8

[[record]]
compound = "COc1ccc2[nH]c([S+]([O-])Cc3ncc(C)c(OC)c3C)nc2c1 (centres undefined) [OMEPRAZOLE]"
assayresult = 10


Sure, the documented BUN for COC1=CC(=O)C[C@@H](C)[C@]12Oc1c(Cl)c(OC)cc(OC)c1C2=O [GRISEOFULVIN] is 10.2

----------
Species on record: Rattus norvegicus
experimentNotes: Open TG-GATES - Regimen: Daily Repeat
Assay type: toxicity, organism-based, Sprague-Dawley
Set-up: regimen Daily Repeat, gender Male, age 6 weeks
runConditions: in vivo, po, 300 mg/kg, 72 h, tissue Blood, route gavage, dose level Middle, time 3 day
Examples of compounds with documented MCV follow.
A number alone suffices; assume fL.

In the examples that follow, each entry is paired with its recorded MCV.
[[record]]
compound = "COC1=CC(=O)C[C@@H](C)[C@]12Oc1c(Cl)c(OC)cc(OC)c1C2=O"
measure = "MCV"
assayresult = 62.1

[[record]]
compound = "COc1ccc2[nH]c([S+]([O-])Cc3ncc(C)c(OC)c3C)nc2c1 (stereo not given)"
measure = "MCV"
assayresult = 60.9

[[record]]
compound = "CCOC(=O)CCC(=O)O[C@H]1[C@H](O[C@@H]2[C@@H](C)[C@H](O[C@H]3C[C@@](C)(OC)[C@@H](O)[C@H](C)O3)[C@@H](C)C(=O)O[C@H](CC)[C@@](C)(O)[C@H](O)[C@@H](C)C(=O)[C@H](C)C[C@@]2(C)O)O[C@H](C)C[C@@H]1N(C)C [ERYTHROMYCIN ETHYLSUCCINATE]"
measure = "MCV"
assayresult = 62.7

[[record]]
compound = "NC(N)=Nc1nc(CSCCC(N)=NS(N)(=O)=O)cs1"
measure = "MCV"
assayresult = 63.4


Sure, the documented MCV for CCOc1ccc(NC(=O)CC(C)O)cc1 (stereo not given) is 61.3
